# ASSAY TARGET: T1, recombinant E1/E2 heterodimer protein (genotype 1a) (hepatitis C virus genotype 1a, UniProt P26664 192-383; P26664 384-746, limits assumed)
# T1 construct: also called E1/E2 in complex; recombinant E1/E2 antigen
# T1 sequence (P26664 192-383 limits assumed, chain 1 of 2): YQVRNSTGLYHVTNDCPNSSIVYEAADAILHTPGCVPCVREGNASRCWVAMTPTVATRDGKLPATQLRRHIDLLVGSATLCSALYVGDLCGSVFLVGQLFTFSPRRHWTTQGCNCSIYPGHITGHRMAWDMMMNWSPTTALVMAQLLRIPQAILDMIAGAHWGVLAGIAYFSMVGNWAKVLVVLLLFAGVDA
# T1 sequence (P26664 384-746 limits assumed, chain 2 of 2): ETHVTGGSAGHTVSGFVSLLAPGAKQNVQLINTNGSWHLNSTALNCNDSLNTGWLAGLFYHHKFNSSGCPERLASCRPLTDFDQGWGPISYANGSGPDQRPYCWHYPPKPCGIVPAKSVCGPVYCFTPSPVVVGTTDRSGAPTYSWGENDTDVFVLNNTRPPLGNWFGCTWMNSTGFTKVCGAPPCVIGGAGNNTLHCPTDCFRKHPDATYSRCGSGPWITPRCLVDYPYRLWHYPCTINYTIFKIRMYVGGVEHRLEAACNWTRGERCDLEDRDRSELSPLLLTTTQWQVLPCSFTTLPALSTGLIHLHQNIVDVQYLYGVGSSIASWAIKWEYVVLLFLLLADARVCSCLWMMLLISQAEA
# EXPERIMENT NOTES: ELISA, E1/E2 heterodimer coated; crude periplasmic Fab
METRIC NAME: OD405 nm (OD405 nm)
Field: numeric (OD405 nm). Do not append units.

// worked examples, OD405 nm included
Name the recorded OD405 nm for Fab clone 2b-4 (Fab, V domains shown, Human Fab (gamma1 Fd + kappa), crude periplasmic preparation, approx. 0.68 ug Fab/ml) VH: EVQLLESGGEVKKPGSSVKVSCKASGGPFSSYAIHWVRQAPGQGLEWMGAIIPFLGRAKYAQKFEGRVTITADGSMSTAYMEVSSLRSDDTAMYYCARDRGELLLRMDVWGQGTAVTVSS VL: AELTQSPAFMSATPGDKVNISCKASQDIDDDMNWYQQKPGEAAIFIIQEATTLVPGIPPRFSGSGYGTDFTLTINNIESEDAAYYFCLQHDNFPLTFGQGTKVEIK .
0.09

And Fab clone 4:6 (Fab, V domains shown, Tested as a human Fab (gamma1 Fd + kappa), crude periplasmic preparation, approx. 0.24 ug Fab/ml) VH: VQLLEQSGAEVKKPGASVKVSCKASGYTFTKYYLHWVRQAPGQGLEWMGFINPSGGSTSSAQKFQGRISMTRDTSTTTVYMEVNSVTSEDTAVYYCARVGRLGVGATGAFDLWGQGTMVTVSS VL: AELTQSPSSLSASVGDRVTITCQASQDINYSLNWYQQKPGKPPKLLIYYASHSDTGVPSRFSGGGSGTRFTLTIYSLQPEDIATYYCQHFDHVPRYTFGPGTKVDLK ?
0.2

Could you now consider this next binder?
Name the recorded OD405 nm for Fab clone 2b-10 (Fab, V domains shown, Human Fab (gamma1 Fd + kappa), crude periplasmic preparation, approx. >1.0 ug Fab/ml) VH: EVQLLESGGGVVQPGRSLKLSCTASTFTFTNYAMHWVRQAPGKGLEWVALISNDGSKTYYTDSVRGRFTISRDNSKNTLFLQMNSLRTEDTAVYHCARVKLQGSFNVYYYYGLDVWGQGTTVTVSS VL: AELTQSPLSLPVTPGEPASISCRSSQSLLHSDGYNYFDWYLQKPGQSPQLLIYLGSNRASGVPDRFSGSGSDTDFTLKISRVEAEDVGVYYCMQTLQTLTFGGGTKLEIK .
0.11
